meta.source: patent US20180305450A1

Listing of recorded koff by entry.
- systemUnderTest: T1, recombinant biotinylated rat PAR2 extracellular residues 1-75, N-terminal AviTag, C-terminal Flag and poly … (rat, UniProt Q63645 26-75, not fully specified; biotin on the AviTag (enzymatic biotinylation))
- T1 construct: range 1-75; not shown: N-terminal AviTag (Avidity LLC); C-terminal Flag and poly Histidine tags
- T1 chain (looked up): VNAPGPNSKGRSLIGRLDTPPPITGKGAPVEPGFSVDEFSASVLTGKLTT
- assayDetails: Biacore SPR 25 C, pH 7.4
attributeMeasured: koff (s⁻¹)

[[record]]
binder = "PaB670136 Fab (Fab, V domains shown, Fab; also called ZZ1RUF-A01) VH: EVQLLESGGGLVQPGGSLRLSCAASGFTFSSYAMNWVRQAPGKGLEWVSTISYHGHHISYADSHHHRFTISRDNSKNTLYLQMNSLRAEDTAVYYCARIHHDPMDHWGQGTLVTVSS VL: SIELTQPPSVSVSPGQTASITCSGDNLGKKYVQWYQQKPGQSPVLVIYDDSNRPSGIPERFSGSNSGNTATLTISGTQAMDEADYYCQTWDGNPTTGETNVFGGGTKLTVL"
measvalue = 0.0314

[[record]]
binder = "PaB670128 Fab (Fab, V domains shown, Fab; also called ZZ1RUE-A01) VH: EVQLLESGGGLVQPGGSLRLSCAASGFTFSSYAMNWVRQAPGKGLEWVSTISYHGHHISYADSHHHRFTISRDNSKNTLYLQMNSLRAEDTAVYYCARIHHDPMDVWGQGTLVTVSS VL: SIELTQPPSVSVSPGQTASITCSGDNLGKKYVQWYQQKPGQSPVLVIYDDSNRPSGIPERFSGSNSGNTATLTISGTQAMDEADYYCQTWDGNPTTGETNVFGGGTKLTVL"
measvalue = 0.0196

